# IC50 values compiled below
# subject.of.test: BDNF/NT-3 growth factors receptor (Homo sapiens)
# assay.notes: Inhibition of recombinant human His-tagged TrkB catalytic domain (526 to 838 residues) expressed in baculovirus expression system using tyr 01 as substrate incubated for 1 hr by Z'-Lyte assay
measured.property: IC50

molecule=CN1CCN(Cc2cc(NC(=O)c3cccc(C#Cc4cnc5cnccn45)c3)cc(C(F)(F)F)c2)CC1 endpoint_result="43.9 nM"
molecule=Cc1ccc(C#Cc2cnc3cnccn23)cc1C(=O)Nc1cc(CN2CCN(C)CC2)cc(C(F)(F)F)c1 endpoint_result="> 1000 nM"
molecule=Cc1cc(C#Cc2cnc3cnccn23)cc(C(=O)Nc2cc(CN3CCN(C)CC3)cc(C(F)(F)F)c2)c1 endpoint_result="178 nM"
molecule=Cc1c(C#Cc2cnc3cnc(-c4ccncc4)cn23)cccc1C(=O)Nc1cc(CN2CCN(C)CC2)cc(C(F)(F)F)c1 endpoint_result="43.5 nM"
molecule=COc1c(C#Cc2cnc3cnccn23)cccc1C(=O)Nc1cc(CN2CCN(C)CC2)cc(C(F)(F)F)c1 endpoint_result="> 1000 nM"
molecule=Cc1c(C#Cc2cnc3cnc(-c4ccc(N)cc4)cn23)cccc1C(=O)Nc1cc(CN2CCN(C)CC2)cc(C(C)(C)C)c1 endpoint_result="15.6 nM"
molecule=Cc1ccc(C(=O)Nc2cc(CN3CCN(C)CC3)cc(C(F)(F)F)c2)cc1C#Cc1cnc2cnccn12 endpoint_result="9.37 nM"
molecule=Cc1c(C#Cc2cnc3cnc(-c4ccccc4)cn23)cccc1C(=O)Nc1cc(CN2CCN(C)CC2)cc(C(F)(F)F)c1 endpoint_result="22.7 nM"

---

# IC50 values compiled below
# subject.of.test: BDNF/NT-3 growth factors receptor (Homo sapiens, UniProt Q16620)
# Sequence (Q16620 whole entry, the tested form may be a part): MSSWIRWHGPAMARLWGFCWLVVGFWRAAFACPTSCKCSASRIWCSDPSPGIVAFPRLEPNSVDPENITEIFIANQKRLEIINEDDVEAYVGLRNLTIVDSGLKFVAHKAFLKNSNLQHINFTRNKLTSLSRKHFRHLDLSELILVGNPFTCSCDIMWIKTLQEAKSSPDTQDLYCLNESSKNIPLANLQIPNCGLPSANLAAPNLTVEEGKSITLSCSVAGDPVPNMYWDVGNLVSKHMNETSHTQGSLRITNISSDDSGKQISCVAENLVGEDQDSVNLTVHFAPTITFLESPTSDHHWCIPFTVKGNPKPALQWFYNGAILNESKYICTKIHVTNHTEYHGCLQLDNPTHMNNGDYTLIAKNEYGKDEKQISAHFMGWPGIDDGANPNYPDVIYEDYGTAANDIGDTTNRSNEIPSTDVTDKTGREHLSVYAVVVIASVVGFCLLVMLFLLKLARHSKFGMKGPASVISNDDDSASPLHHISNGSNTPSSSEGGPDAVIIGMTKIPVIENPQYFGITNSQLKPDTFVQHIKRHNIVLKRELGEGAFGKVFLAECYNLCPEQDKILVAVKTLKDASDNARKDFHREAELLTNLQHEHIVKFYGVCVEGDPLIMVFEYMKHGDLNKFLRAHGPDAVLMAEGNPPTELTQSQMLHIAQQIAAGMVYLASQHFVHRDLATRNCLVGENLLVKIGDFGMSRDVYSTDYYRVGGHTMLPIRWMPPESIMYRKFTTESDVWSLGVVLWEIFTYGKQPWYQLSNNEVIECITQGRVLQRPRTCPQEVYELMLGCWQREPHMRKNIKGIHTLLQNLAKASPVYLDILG
# assay.notes: Inhibition of recombinant human His-tagged TrkB catalytic domain (526 to 838 residues) expressed in baculovirus expression system using tyr 01 as substrate incubated for 1 hr by Z'-Lyte assay
measured.property: IC50

molecule=CCc1c(C#Cc2cnc3cnccn23)cccc1C(=O)Nc1cc(CN2CCN(C)CC2)cc(C(F)(F)F)c1 measured_property=IC50 endpoint_result="315 nM"
molecule=Cc1c(C#Cc2cnc3cnccn23)cccc1C(=O)Nc1cc(CN2CCN(C)CC2)cc(C(F)(F)F)c1 measured_property=IC50 endpoint_result="38.3 nM"
molecule=CCc1cc(CN2CCN(C)CC2)cc(NC(=O)c2cccc(C#Cc3cnc4cnc(-c5ccc(N)cc5)cn34)c2C)c1 measured_property=IC50 endpoint_result="9.3 nM"
molecule=CC(C)c1c(C#Cc2cnc3cnccn23)cccc1C(=O)Nc1cc(CN2CCN(C)CC2)cc(C(F)(F)F)c1 measured_property=IC50 endpoint_result="> 1000 nM"
molecule=Cc1c(C#Cc2cnc3cnc(-c4ccc(N)cc4)cn23)cccc1C(=O)Nc1cc(CN2CCN(C)CC2)cc(-c2ccccc2)c1 measured_property=IC50 endpoint_result="24.2 nM"
molecule=Cc1c(C#Cc2cnc3cnc(-c4ccc(N)cc4)cn23)cccc1C(=O)Nc1cc(CN2CCN(C)CC2)cc(C(F)(F)F)c1 measured_property=IC50 endpoint_result="13.1 nM"
molecule=Cc1c(C#Cc2cnc3cnc(-c4ccc(N)cc4)cn23)cccc1C(=O)Nc1cc(CN2CCN(C)CC2)cc(C(C)C)c1 measured_property=IC50 endpoint_result="10.5 nM"
molecule=CCCc1c(C#Cc2cnc3cnccn23)cccc1C(=O)Nc1cc(CN2CCN(C)CC2)cc(C(F)(F)F)c1 measured_property=IC50 endpoint_result="> 1000 nM"
molecule=CN1CCN(Cc2cc(NC(=O)c3cccc(C#Cc4cnc5cnccn45)c3Cl)cc(C(F)(F)F)c2)CC1 measured_property=IC50 endpoint_result="254 nM"
molecule=Cc1cc(CN2CCN(C)CC2)cc(NC(=O)c2cccc(C#Cc3cnc4cnc(-c5ccc(N)cc5)cn34)c2C)c1 measured_property=IC50 endpoint_result="41.3 nM"
